Organism: Homo sapiens
Assay: Hepatic clearance in human
Details: in vivo
MEASURED_PROPERTY: log10(CL) (log10 of the value in mL/min/kg)
Each number you see is log10 of CL, and the unit inside the log is mL/min/kg.

Given item O=C1Cc2cc(CCN3CCN(c4nsc5ccccc45)CC3)c(Cl)cc2N1 [ZIPRASIDONE] , the value recorded as its log10(CL) is 0.70

Given item Cc1onc(-c2ccccc2Cl)c1C(=O)N[C@@H]1C(=O)N2[C@@H]1SC(C)(C)[C@@H]2C(=O)O [CLOXACILLIN] , the value recorded as its log10(CL) is -0.22

Given item C[C@@H](O)[C@H]1C(=O)N2C(C(=O)O)=C(SCCN=CN)C[C@H]12 [IMIPENEM ANHYDROUS] , the value recorded as its log10(CL) is 0.18

Given item O=C(O)Cc1ccccc1Nc1c(Cl)cccc1Cl [DICLOFENAC] , the value recorded as its log10(CL) is 0.54

Given item O=[N+]([O-])O[C@@H]1CO[C@H]2[C@@H]1OC[C@@H]2O [ISOSORBIDE MONONITRATE] , the value recorded as its log10(CL) is 0.28

Given item CCCCC(=O)N(Cc1ccc(-c2ccccc2-c2nnn[nH]2)cc1)[C@H](C(=O)O)C(C)C , the value recorded as its log10(CL) is -0.52

Given item O=C(O)P(=O)(O)O [FOSCARNET] , the value recorded as its log10(CL) is -0.40

Given item CC1(C)S[C@@H]2[C@H](NC(=O)[C@H](N)c3ccccc3)C(=O)N2[C@H]1C(=O)O [AMPICILLIN] , the value recorded as its log10(CL) is 0.20

Given item CN(C)Cc1nnc2n1-c1ccc(Cl)cc1C(c1ccccc1)=NC2 [ADINAZOLAM] , the value recorded as its log10(CL) is 0.56

Given item O=C(O)c1cc(/N=N/c2ccc(S(=O)(=O)Nc3ccccn3)cc2)ccc1O [SULFASALAZINE] , the value recorded as its log10(CL) is -0.70

Given item N=C(N)NC(=O)Cc1c(Cl)cccc1Cl [GUANFACINE] , the value recorded as its log10(CL) is 0.46

Given item CC(=O)CC(c1ccccc1)c1c(O)c2ccccc2oc1=O (centres undefined) [WARFARIN] , the value recorded as its log10(CL) is -1.00

Given item CC1=C(C(=O)O)N2C(=O)[C@@H](NC(=O)[C@H](N)c3ccc(O)cc3)[C@H]2SC1 [CEFADROXIL] , the value recorded as its log10(CL) is -0.70

Given item CC(C)NCC(O)c1ccc(NS(C)(=O)=O)cc1 (centres undefined) [SOTALOL] , the value recorded as its log10(CL) is -0.52

Given item NC(=O)CN1CC(O)CC1=O (centres undefined) [OXIRACETAM] , the value recorded as its log10(CL) is -1.00

Given item C[C@]12C=CC(=O)C=C1CC[C@@H]1[C@@H]2[C@@H](O)C[C@@]2(C)[C@H]1CC[C@]2(O)C(=O)CO [PREDNISOLONE] , the value recorded as its log10(CL) is 0.36

Given item C[C@](N)(Cc1ccc(O)c(O)c1)C(=O)O [METHYLDOPA] , the value recorded as its log10(CL) is 0.15

Given item CNC[C@H](O)CC12CCC(c3ccccc31)c1ccccc12 [LEVOPROTILINE] , the value recorded as its log10(CL) is 1.08

Given item NS(=O)(=O)c1cc(C2(O)NC(=O)c3ccccc32)ccc1Cl (centres undefined) [CHLORTHALIDONE] , the value recorded as its log10(CL) is -0.30
